B1: TPR 5TU (parent)
chain: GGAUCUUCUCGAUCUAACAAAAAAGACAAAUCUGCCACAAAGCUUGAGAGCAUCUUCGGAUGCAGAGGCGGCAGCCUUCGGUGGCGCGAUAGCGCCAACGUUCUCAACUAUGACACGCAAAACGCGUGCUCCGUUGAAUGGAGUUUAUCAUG

Variants of: B1
protocolText: polymerase ribozyme fitness, log enrichment relative to wild type (log ratio); higher = more active; in vitro selection for triplet polymerase activity
Variants at the floor of the assay were thinned out.
Here, each record is paired with measured polymerase ribozyme fitness (log ratio) data.

// known answers, use as guide
[
  {
    "mutationKey": "A60G C87A U109A C132G",
    "polymerase ribozyme fitness (log ratio)": "≤ -4.2"
  },
  {
    "mutationKey": "A37U G70C C85U G92A",
    "polymerase ribozyme fitness (log ratio)": "≤ -4.2"
  },
  {
    "mutationKey": "C5U A17G A49G U53G C85A A122C G141C",
    "polymerase ribozyme fitness (log ratio)": "≤ -4.2"
  },
  {
    "mutationKey": "U7A C10G C32A U33A G50C G83U A91G U102C",
    "polymerase ribozyme fitness (log ratio)": "≤ -4.2"
  }
]

input: For the variant C51U U53G C93G U127C , give its measured polymerase ribozyme fitness (log ratio) value.
output: ≤ -4.2

input: For the variant C5U A52U A64C G70C C85A C116G A122U C125U A150G , give its measured polymerase ribozyme fitness (log ratio) value.
output: ≤ -4.2

input: For the variant G11U A16C A24G G58C C87A C99U , give its measured polymerase ribozyme fitness (log ratio) value.
output: ≤ -4.2

input: For the variant G11A C32A C93U , give its measured polymerase ribozyme fitness (log ratio) value.
output: ≤ -4.2

input: For the variant C5A A21G A41C A64U C85A C96U A110U G117U , give its measured polymerase ribozyme fitness (log ratio) value.
output: ≤ -4.2

input: For the variant C8U C14G G50C A106U A110G , give its measured polymerase ribozyme fitness (log ratio) value.
output: ≤ -4.2

input: For the variant U7A A22C A28C A60C G92A G143C A147G , give its measured polymerase ribozyme fitness (log ratio) value.
output: ≤ -4.2

input: For the variant A26G G42C C95U A150U , give its measured polymerase ribozyme fitness (log ratio) value.
output: ≤ -4.2

input: For the variant U15C A37U G46U G84U U148C , give its measured polymerase ribozyme fitness (log ratio) value.
output: ≤ -4.2

input: For the variant A3G U33G U55A A66C C108U , give its measured polymerase ribozyme fitness (log ratio) value.
output: ≤ -4.2

input: For the variant C14U G42A C87U G136A , give its measured polymerase ribozyme fitness (log ratio) value.
output: ≤ -4.2
